- Tested on: weeds
- experiment.summary: Post-emergence test (greenhouse), damage to weeds
- Type: in vivo
- experimental.conditions: test plants of 5-15 cm sprayed, rated after three weeks as % damage vs untreated control
- Description: Solvent: 5 parts by weight of acetone Emulsifier: 1 part by weight of alkylaryl polyglycol ether To product a suitable preparation of active compound, 1 part by weight of active compound is mixed with the stated amount of solvent, the stated amount of emulsifier is added and the concentrate is diluted with water to the desired concentration. […]
measure.name: activity against weeds

Check out these entries, answers already filled in.
| compound | test.target | measure.name | data.value |
| --- | --- | --- | --- |
| COc1cc(Cl)nc(NC(=O)NS(=O)(=O)c2c(OCCF)cccc2C(F)(F)F)n1 [Example 20] | weeds | activity against weeds | very strong activity |
| CCCc1cccc(OCCF)c1S(=O)(=O)NC(=O)Nc1nc(OC)cc(OC)n1 [Example 26] | weeds | activity against weeds | very strong activity |
| COc1nc(NC(=O)NS(=O)(=O)c2c(OCCF)cccc2C(F)(F)F)nc(OC)n1 [Example 21] | weeds | activity against weeds | very strong activity |
| COc1cc(Cl)nc(NC(=O)NS(=O)(=O)c2c(C)cccc2OCCCF)n1 [Example 14] | weeds | activity against weeds | very strong activity |
| COc1cc(OC)nc(NC(=O)NS(=O)(=O)c2c(C)cccc2OCCF)n1 [Example 24] | weeds | activity against weeds | very strong activity |

Please look at the following compound next.
activity against weeds reported for this compound CCCc1cccc(OCCCF)c1S(=O)(=O)NC(=O)Nc1nc(OC)cc(OC)n1 [Example 25] : very strong activity

###

Listing: % damage Galium of selected molecules
- Test system: weeds
- experiment.summary: Post-emergence test (greenhouse), damage to weeds
- Type: in vivo
- experimental.conditions: 250 g of a.i./ha, after three weeks
Dear colleague, please return just the value in %, with no unit written.

| molecule | test.target | data.value |
| --- | --- | --- |
| CCCc1cccc(OCCF)c1S(=O)(=O)NC(=O)Nc1nc(OC)cc(OC)n1 | weeds | 90 |

Please look at the following molecule next.
% damage Galium reported for this molecule COc1cc(OC)nc(NC(=O)NS(=O)(=O)c2c(C)cccc2OCCF)n1 : 90

###

- Tested on: weeds
- experiment.summary: Post-emergence test (greenhouse), damage to weeds
- Type: in vivo
- experimental.conditions: 250 g of a.i./ha, after three weeks
- Protocol: Solvent: 5 parts by weight of acetone Emulsifier: 1 part by weight of alkylaryl polyglycol ether To product a suitable preparation of active compound, 1 part by weight of active compound is mixed with the stated amount of solvent, the stated amount of emulsifier is added and the concentrate is diluted with water to the desired concentration. […]
Listing: % damage Galium of selected compounds
Dear colleague, please return just the value in %, with no unit written.

| compound | % damage Galium [%] |
| --- | --- |
| COc1nc(C)nc(NC(=O)NS(=O)(=O)c2c(C)cccc2OCCF)n1 [(2)] | 100 |
| COc1nc(C)nc(NC(=O)NS(=O)(=O)c2c(C)cccc2OCCF)n1 [(1)] | 100 |

Please look at the following compound next.
% damage Galium reported for this compound CCCc1cccc(OCCCF)c1S(=O)(=O)NC(=O)Nc1nc(OC)cc(OC)n1 [(25)] : 100
